Test system: H460
Assay: MTT proliferation assay in H460 cells
Type: cell-based, Human
Conditions: 3 days
pEC50: −log10 of the molar value.

{"Smiles input": "CN1C[C@H](C(=O)N[C@]2(C)O[C@@]3(O)[C@@H]4CCCN4C(=O)[C@H](Cc4ccccc4)N3C2=O)C=C2c3cccc4[nH]cc(c34)C[C@H]21", "pEC50": 4.59}

Value source: paper PMC4016822
